The entries below come with measured Kd values attached.
Biological target: T1, human factor D (human, UniProt P00746 26-253)
T1 construct: also called fD
T1 sequence (P00746 26-253 limits assumed): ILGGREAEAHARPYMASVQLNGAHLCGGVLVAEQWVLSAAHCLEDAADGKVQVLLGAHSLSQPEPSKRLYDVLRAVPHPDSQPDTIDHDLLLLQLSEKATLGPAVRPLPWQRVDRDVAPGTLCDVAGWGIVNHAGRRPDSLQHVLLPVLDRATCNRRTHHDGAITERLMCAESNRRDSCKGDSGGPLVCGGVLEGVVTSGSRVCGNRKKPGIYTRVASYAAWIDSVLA
Assay: SPR Biacore T200, Fab captured by anti-huFab, human fD injected, 25 C
Protocol: Antibody Fab fragments were immobilized on a Series S CM5 sensor chip using the anti-huFab capture kit (GE healthcare Cat. #28-9583-25) following a protocol described by the manufacturer. Kinetics of binding were calculated from sensorgrams recorded for injection of 60 μL aliquots of solutions of human factor D varied in concentration from 0.39 nM to 25 nM in 2-fold increments. […]
Reply numerically in nM, unit not repeated.

BINDER	Kd, nM
AFD.v14 (SIESD.N103S; VL-D28S:D30E:D31S VH-D62E VH-N103S) (Fab, V domains shown, Fab; also called SIESD.N103S (AFD.v14); AFD.14) VH: EVQLVQSGPELKKPGASVKVSCKASGYTFTNYGMNWVRQAPGQGLEWMGWINTYTGETTYAEDFKGRFVFSLDTSVSTAYLQISSLKAEDTAVYYCEREGGVSNWGQGTLVTVSS VL: DIQVTQSPSSLSASVGDRVTITCITSTSIESDMNWYQQKPGKVPKLLISGGNTLRPGVPSRFSGSGSGTDFTLTISSLQPEDVATYYCLQSDSLPYTFGQGTKVEIKR	0.0256
AFD.v11 (VL-D28S:D30E:D31S VH-D62E VH-N52S) (Fab, V domains shown, Fab variant of aFD.WT; also called SIESD + VH-N52S) VH: EVQLVQSGPELKKPGASVKVSCKASGYTFTNYGMNWVRQAPGQGLEWMGWISTYTGETTYAEDFKGRFVFSLDTSVSTAYLQISSLKAEDTAVYYCEREGGVNNWGQGTLVTVSS VL: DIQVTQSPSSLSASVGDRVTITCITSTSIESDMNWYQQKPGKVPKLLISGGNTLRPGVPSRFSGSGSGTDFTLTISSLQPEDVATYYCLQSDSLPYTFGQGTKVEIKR	0.07

Ask | If you can, please state the reported Kd value of AFD.v9 (VL-D28S:D30E:D31S VH-D62E VL-N34S) (Fab, V domains shown, Fab variant of aFD.WT; also called SIESD + VL-N34S) VH: EVQLVQSGPELKKPGASVKVSCKASGYTFTNYGMNWVRQAPGQGLEWMGWINTYTGETTYAEDFKGRFVFSLDTSVSTAYLQISSLKAEDTAVYYCEREGGVNNWGQGTLVTVSS VL: DIQVTQSPSSLSASVGDRVTITCITSTSIESDMSWYQQKPGKVPKLLISGGNTLRPGVPSRFSGSGSGTDFTLTISSLQPEDVATYYCLQSDSLPYTFGQGTKVEIKR .
Reply | 0.03
